Each recorded value in this set is attributed to ChEMBL document CHEMBL4346735.

test: Plasma protein binding in rat; type: ADME; settings: read-out: PPB
measured-parameter: fraction unbound
Note: the reply should be a number with no unit written.

Lookup: // lookup fraction unbound for O=C(O)c1ccc(-n2cc(C(=O)c3c(Cl)cccc3Cl)c3cccc(F)c32)cc1
Found: 0.01

* * *

experiment: AUC in mouse liver at 10 mg/kg, po; assay type: ADME, organism-based
measured-parameter: AUC (µM·h)
Report the figure in µM·h without appending any unit label.

Lookup: Entry under review: O=C(O)c1ccc(-n2cc(C(=O)c3c(Cl)cccc3Cl)c3cccc(F)c32)cc1 . Reported AUC?
Found: 400

* * *

assay: Metabolic stability in simulated gastric fluid assessed as compound remaining after 60 mins; format: ADME; conditions: read-out: Stability
measured-parameter: remaining at 1 h (%)
Use % as the unit, but write only the number.

Lookup: If you can, please state the reported remaining at 1 h value of O=C(O)c1ccc(-n2cc(C(=O)c3c(Cl)cccc3Cl)c3cccc(F)c32)cc1 .
Found: 93

* * *

experiment: Metabolic stability in human liver microsomes assessed as parent compound remaining at 1 uM preincubated for 5 mins followed by NADPH addition after 30 mins by LC-MS/MS analysis; format: ADME, Microsome; settings: read-out: Stability
Threshold 90%. remaining at 0.5 h, 1 µM below it: Satisfied. remaining at 0.5 h, 1 µM at it or above: Not satisfied.

Lookup: Does O=C(O)c1ccc(-n2cc(C(=O)c3c(Cl)cccc3Cl)c3ccccc32)cc1O have remaining at 0.5 h, 1 µM strictly under 90%?
Found: Satisfied

Lookup: Decide: remaining at 0.5 h, 1 µM of O=C(O)c1ccc(-n2cc(C(=O)c3c(Cl)cccc3C(F)(F)F)c3cccnc32)cc1 strictly below 90%?
Found: Satisfied

Lookup: Strictly below 90%: is that where remaining at 0.5 h, 1 µM of Cc1cccc(Cl)c1C(=O)c1cn(-c2ccc(C(=O)O)cc2)c2cccc(F)c12 sits?
Found: Satisfied

Lookup: Lab log: compare recorded remaining at 0.5 h, 1 µM with 90%; is it strictly lower for O=C(O)c1ccc(-n2cc(C(=O)c3c(Cl)cccc3Cl)c3ccccc32)c(C(F)(F)F)c1 ?
Found: Not satisfied

Lookup: Decide: remaining at 0.5 h, 1 µM of CCS(=O)(=O)c1ccc(CC(=O)Nc2cc(Cl)c(-c3ccccc3OC(F)(F)F)c(Cl)c2)cc1 strictly below 90%?
Found: Not satisfied

Lookup: remaining at 0.5 h, 1 µM strictly < 90% for this compound? O=C(O)c1ccc(-n2cc(C(=O)c3c(Cl)cccc3Cl)c3ccccc32)c(Cl)c1
Found: Satisfied

Lookup: Dear colleague, could you confirm whether remaining at 0.5 h, 1 µM of O=C(O)c1ccc(-n2cc(C(=O)c3c(Cl)cccc3Cl)c3ccccc32)cc1 falls below 90%? Thanks.
Found: Not satisfied

Lookup: Please indicate whether the reported remaining at 0.5 h, 1 µM of O=C(O)c1ccc(-n2cc(C(=O)c3c(Cl)cccc3Cl)c3c(F)cccc32)cc1 is strictly below 90%.
Found: Not satisfied

Lookup: Is the reported remaining at 0.5 h, 1 µM for O=C(O)c1ccc(-n2cc(C(=O)c3c(Cl)cccc3Cl)c3cccnc32)cc1 strictly below 90%?
Found: Not satisfied

Lookup: remaining at 0.5 h, 1 µM under 90%? Item: Cc1cccc(Cl)c1C(=O)c1cn(-c2ccc(C(=O)O)cc2F)c2ccccc12
Found: Satisfied

Lookup: In the record for O=C(O)c1ccc(-n2cc(C(=O)c3c(Cl)cccc3Cl)c3cc(F)ccc32)cc1 , is remaining at 0.5 h, 1 µM less than 90%?
Found: Satisfied

Lookup: Quick check: remaining at 0.5 h, 1 µM of O=C(O)c1ccc(-n2cc(C(=O)c3c(Cl)cccc3C(F)(F)F)c3c(F)cccc32)c(F)c1 under 90%?
Found: Not satisfied

Lookup: For this compound, is remaining at 0.5 h, 1 µM lower than 90%? O=C(O)c1ccc(-n2cc(C(=O)c3c(Cl)cccc3C(F)(F)F)c3cccnc32)c(F)c1
Found: Not satisfied

* * *

assay: Oral bioavailability in Sprague-Dawley rat at 10mg/kg via gavage measured up to 24 hrs by LC-MS/MS analysis; assay type: ADME, organism-based; details: in vivo
measured-parameter: bioavailability (%)
# unit: % | format: bare number

Lookup: Any idea what its bioavailability is? The compound is O=C([O-])c1ccc(-n2cc(C(=O)c3c(Cl)cccc3Cl)c3cccc(F)c32)cc1.[Na+]
Found: 50

* * *

test: Metabolic stability in simulated gastric fluid assessed as compound remaining after 30 mins; type: ADME; conditions: read-out: Stability
measured-parameter: remaining at 0.5 h (%)
Write the value in % as a bare number.

Lookup: # query: remaining at 0.5 h of entry O=C(O)c1ccc(-n2cc(C(=O)c3c(Cl)cccc3Cl)c3cccc(F)c32)cc1
Found: 90

* * *

assay: Cmax in Sprague-Dawley rat at 10 mg/kg, po via gavage measured up to 24 hrs by LC-MS/MS analysis; type: ADME, organism-based; set-up: dose 10 mg/kg, route oral; details: in vivo
measured-parameter: Cmax (nM)
// note: answer is a bare numeric in nM

Lookup: Look up Cmax for this compound: O=C([O-])c1ccc(-n2cc(C(=O)c3c(Cl)cccc3Cl)c3cccc(F)c32)cc1.[Na+]
Found: 3000

* * *

assay: Clearance in Sprague-Dawley rat at 3 mg/kg, iv administered as single dose measured up to 24 hrs by LC-MS/MS analysis; assay type: ADME, organism-based; details: in vivo
measured-parameter: clearance (L/h/kg)
Only the number, expressed in L/h/kg, is required.

Lookup: What value of measured clearance is listed for O=C([O-])c1ccc(-n2cc(C(=O)c3c(Cl)cccc3Cl)c3cccc(F)c32)cc1.[Na+] ?
Found: 1.74

* * *

assay: Plasma protein binding in dog; assay type: ADME, Canis lupus familiaris; conditions: read-out: PPB
measured-parameter: fraction unbound
Lab note: jot down the number only; don't add units.

Lookup: For the compound O=C(O)c1ccc(-n2cc(C(=O)c3c(Cl)cccc3Cl)c3cccc(F)c32)cc1 , what fraction unbound is on record?
Found: 0.01

* * *

assay: AUC (0 to infinity) in Sprague-Dawley rat at 3 mg/kg, iv administered as single dose measured up to 24 hrs by LC-MS/MS analysis; format: ADME, organism-based; design: dose 3 mg/kg, time infinity, route intravenous; conditions: in vivo
measured-parameter: AUC(0-inf)
Just so you know, I need the unit written after the number.

Lookup: Reported AUC(0-inf) for O=C([O-])c1ccc(-n2cc(C(=O)c3c(Cl)cccc3Cl)c3cccc(F)c32)cc1.[Na+] : what is it?
Found: 4.11 µM·h

* * *

experiment: AUC (0 to 24 hrs) in mouse at 10 mg/kg, po; format: ADME, organism-based; set-up: dose 10 mg/kg, time < 24 hr, route oral; settings: in vivo
Entry flag: Fulfilled if AUC(0-t) at 24 h reaches 20 µM·h; Not fulfilled if it does not.

Lookup: Could you verify whether the entry O=C(O)c1ccc(-n2cc(C(=O)c3c(Cl)cccc3Cl)c3cccc(F)c32)cc1 shows AUC(0-t) at 24 h of no less than 20 µM·h?
Found: Not fulfilled

Lookup: Is it the case that O=C(O)c1ccc(-n2cc(C(=O)c3c(Cl)cccc3Cl)c3ccccc32)c(F)c1 has AUC(0-t) at 24 h reaching or exceeding 20 µM·h?
Found: Not fulfilled

Lookup: Check the entry O=C(O)c1ccc(-n2cc(C(=O)c3c(Cl)cccc3C(F)(F)F)c3cccnc32)c(F)c1 : does AUC(0-t) at 24 h equal or exceed 20 µM·h?
Found: Fulfilled

Lookup: Record O=C(O)c1ccc(-n2cc(C(=O)c3c(Cl)cccc3C(F)(F)F)c3c(F)cccc32)c(F)c1 ; criterion: AUC(0-t) at 24 h no lower than 20 µM·h. Met?
Found: Fulfilled

* * *

test: Metabolic stability in simulated intestinal fluid assessed as compound remaining after 15 mins; assay type: ADME; conditions: read-out: Stability
measured-parameter: remaining at […] (%)
Write down the numeric answer in % and omit the unit.

Lookup: What remaining at […] value was documented for this compound, O=C(O)c1ccc(-n2cc(C(=O)c3c(Cl)cccc3Cl)c3cccc(F)c32)cc1 ?
Found: 100

* * *

biological target: Cytochrome P450 2C19 (Homo sapiens, UniProt P33261); test: Inhibition of CYP2C19 in human liver microsomes using (S)-mephenytoin as substrate preincubated for 5 mins followed by NADPH addition measured after 40 mins by LC-MS/MS analysis
Sequence (P33261 whole entry): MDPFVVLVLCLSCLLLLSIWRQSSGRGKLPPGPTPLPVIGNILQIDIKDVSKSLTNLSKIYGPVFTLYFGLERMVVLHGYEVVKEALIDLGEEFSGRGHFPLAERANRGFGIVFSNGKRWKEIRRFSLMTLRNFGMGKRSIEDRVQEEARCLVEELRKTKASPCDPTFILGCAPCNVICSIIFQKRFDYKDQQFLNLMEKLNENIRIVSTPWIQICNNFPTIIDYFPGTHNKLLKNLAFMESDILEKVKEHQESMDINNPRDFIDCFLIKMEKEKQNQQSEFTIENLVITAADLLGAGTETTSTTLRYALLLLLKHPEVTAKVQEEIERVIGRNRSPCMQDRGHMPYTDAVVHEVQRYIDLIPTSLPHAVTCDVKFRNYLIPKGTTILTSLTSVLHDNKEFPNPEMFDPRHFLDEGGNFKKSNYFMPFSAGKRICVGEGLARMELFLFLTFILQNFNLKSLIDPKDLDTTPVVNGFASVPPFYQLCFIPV
measured-parameter: IC50

Lookup: Fill in the blank: the reported IC50 of O=C(O)c1ccc(-n2cc(C(=O)c3c(Cl)cccc3C(F)(F)F)c3cccnc32)c(F)c1 is ____.
Found: > 50 µM

Lookup: Given the entry O=C(O)c1ccc(-n2cc(C(=O)c3c(Cl)cccc3C(F)(F)F)c3c(F)cccc32)cc1 , report its measured IC50.
Found: 50 µM

Lookup: Requested field: IC50. Item: Cc1cccc(Cl)c1C(=O)c1cn(-c2ccc(C(=O)O)cc2)c2c(F)cccc12
Found: > 50 µM

Lookup: Could you tell me which IC50 is on file for O=C(O)c1ccc(-n2cc(C(=O)c3c(Cl)cccc3C(F)(F)F)c3c(F)cccc32)c(F)c1 ?
Found: > 50 µM

Lookup: Report IC50 for O=C(O)c1ccc(-n2cc(C(=O)c3c(Cl)cccc3Cl)c3c(F)cccc32)cc1 please.
Found: > 50 µM

Lookup: Which value of IC50 has been reported for O=C(O)c1ccc(-n2cc(C(=O)c3c(Cl)cccc3C(F)(F)F)c3ccccc32)cc1 in the records?
Found: > 50 µM

Lookup: Consider the compound O=C(O)c1ccc(-n2cc(C(=O)c3c(Cl)cccc3Cl)c3c(F)cccc32)c(F)c1 and give its measured IC50.
Found: > 50 µM

Lookup: Suppose we examine the compound O=C(O)c1ccc(-n2cc(C(=O)c3c(Cl)cccc3Cl)c3ccccc32)cc1 ; what IC50 value has been reported?
Found: 67.6 µM

Lookup: What IC50 value was documented for this compound, Cc1cccc(Cl)c1C(=O)c1cn(-c2ccc(C(=O)O)cc2)c2ccccc12 ?
Found: > 50 µM

Lookup: So what's the measured IC50 for this one? CCS(=O)(=O)c1ccc(CC(=O)Nc2cc(Cl)c(-c3ccccc3OC(F)(F)F)c(Cl)c2)cc1
Found: 9.6 µM

Lookup: Fill in the blank: the reported IC50 of O=C(O)c1ccc(-n2cc(C(=O)c3c(F)cccc3Cl)c3ccccc32)cc1 is ____.
Found: > 100 µM
